Reference for the values: the METLIN SMRT retention time set (Domingo-Almenara et al. 2019)

- test-summary: gradient 5% acetonitrile 3 min, to 50% in 2 min, to 85% in 15 min, held 3 min, 100 µL/min
- run-conditions: column: Zorbax Extend-C18 2.1 x 50 mm; eluents: water / acetonitrile, 0.1% formic acid
Threshold 1000 s. RP-LC retention time below it: Condition met. RP-LC retention time at it or above: Condition not met.

1) COc1ccc(OC)c(S(=O)(=O)N2CCOCCNC(=O)[C@H]3CCCC[C@H]32)c1: Condition met
2) O=S(=O)(c1cc(-c2cc(C(F)(F)F)on2)cs1)N1CCN(c2cccc(Cl)c2)CC1: Condition not met
3) Cc1ccc(NC(=O)N2CCC(N3CCN(Cc4ccccc4)C3=O)CC2)cc1Cl: Condition met
4) Cc1noc(CC2CCOC3(CCN(C(=O)C4(c5ccccc5)CC4)CC3)C2)n1 (configuration not stated): Condition met
5) CCN1C(=O)c2cccnc2Sc2cc(NC(=O)CCc3ccccc3)ccc21: Condition met
6) CN1CCN(c2cc(C(=O)O)c3cc(NC(=O)C(C)(C)C)ccc3n2)CC1: Condition met
7) CC(C)CCNC(=O)C1CCN(c2nc3ccsc3c(=O)n2Cc2ccccc2)CC1: Condition met
8) Cc1cc(C)n(-c2ncnc3c2cnn3Cc2ccccc2)n1: Condition not met
9) Cn1ccc2c(cc(C(=O)NCc3ccccc3F)n2C)c1=O: Condition met
10) CCOc1ncccc1C(=O)Nc1cccc(-c2csc3nc(C)cc(=O)n23)c1: Condition met
11) O=C(NCCCN1CCCCC1)c1cc2n(n1)CCCN(Cc1ccc(Cl)cc1)C2=O: Condition met
12) Cc1oncc1CN1CCN(C(=O)c2c(F)cccc2F)CC1: Condition met
13) C[C@@H]1CN(CCCn2c3ccccc3c3ccccc32)C[C@H](C)N1: Condition met
14) CCn1nc(C)c(CCNC(=O)c2cc3c(=O)n(Cc4ccco4)ccc3nc2C)c1C: Condition met
15) Cc1cccc2nnc(N3CCC(C(=O)NCc4ccccc4Cl)CC3)n12: Condition met
16) Cc1cc(C)cc(N2CCC(NC(=O)Nc3ccc(C)cc3C)C2=O)c1 (configuration not stated): Condition met
17) CCCn1c(=O)sc2cc(S(=O)(=O)N3CCC(C(=O)N4c5ccccc5CC4C)CC3)ccc21 (configuration not stated): Condition not met
18) CCn1nnc2cc(-c3noc(CNC(=O)Cc4ccccc4)n3)ccc21: Condition met
19) COCc1nc2cccnc2n1C1CCN(C(=O)Nc2cc(Cl)c(OC)cc2OC)CC1: Condition met
20) Cc1ccc(CNC(=O)N2CCc3nc(-c4ccc(F)cc4)ncc3C2)cc1: Condition met
21) Cc1ccc(C(=O)Nc2nccnc2C(=O)NC(C)c2ccc(F)cc2)cc1 (configuration not stated): Condition not met
22) Cc1ccc(C(=O)NCC2CCCN(S(=O)(=O)c3c(C)c(C)cc(C)c3C)C2)cc1 (configuration not stated): Condition not met
23) COC(=O)c1ccc(Cn2nc(C3CCN(S(C)(=O)=O)CC3)n(C)c2=O)cc1: Condition met

* * *

- test-summary: gradient 5% acetonitrile 3 min, to 50% in 2 min, to 85% in 15 min, held 3 min, 100 µL/min
- run-conditions: column: Zorbax Extend-C18 2.1 x 50 mm; eluents: water / acetonitrile, 0.1% formic acid
Item-by-item account of RP-LC retention time
attribute-measured: RP-LC retention time (s)

1. Cc1ccc(NC(=O)C2CCCN(S(=O)(=O)c3cn(C(C)C)cn3)C2)c(Br)c1 (stereo not drawn): 850
2. O=C(NCCN1CCN(c2ccc(Cl)cc2)CC1)C1CC1: 576
3. Cc1ccc(-c2cc(C(=O)N3CCC(NC(=O)c4cccs4)CC3)[nH]n2)c(C)c1: 763
4. CCc1ccc(CNC(=O)C2CCCN(c3nc4c(s3)c(C)nn4-c3ccccc3)C2)cc1 (stereo not drawn): 1230
5. COc1cccc(Cn2c(C(=O)N3CCC(C(=O)NC4CCCCC4)CC3)cc3ccsc32)c1: 1000
6. Clc1ccc(C2Cn3nnc(-c4nc(-c5ccncc5)no4)c3CO2)cc1 (stereo not drawn): 1000
7. Cc1noc(C2CN(CC(=O)N3CCN(c4ccc(Cl)cc4)CC3)C2)n1: 590
8. Cc1ccc(-c2nc3nc(C)c(CC(=O)N4CCCC4)c(C)n3n2)cc1: 738
9. Cc1ccc(C)c(NC(=O)N2CCc3nc(-c4ccccc4)ncc3C2)c1: 924
10. CCN1C(=O)COc2ccc(-c3noc(Cc4ccc(OC)c(OC)c4)n3)cc21: 923
11. COc1ccc(OC)c(CNC(=O)C2CCN(Cc3cn(C)c4ccc(OC)cc34)CC2)c1: 682
12. CN(C)C(=O)c1cccnc1OC1CCN(C(=O)c2ccc(Br)o2)C1 (stereo not drawn): 663
13. O=C(Nc1ccc(F)cc1)N1CCC(CCNC(=O)C2(c3ccccc3)CC2)CC1: 897
14. O=C(NCc1cccs1)c1nc(-c2ccnc(N3CCCCC3)c2)no1: 742
15. CCCCS(=O)(=O)c1cc2c(cc1NC(=O)Cc1ccc(F)cc1)n(C)c(=O)n2C: 847
16. Cc1cc2cc(CNC(=O)C(=O)c3c(C)[nH]c4ccccc34)ccc2[nH]1: 1010
17. O=C(NCc1ccc(F)c(Cl)c1)c1cn2c(n1)CCCC2: 628
18. CCc1ccccc1N(CC)C(=O)C1CCCN(c2ncnc3c2nc2n3CCCCC2)C1 (stereo not drawn): 964
19. c1ccc(-c2nc3nc4c(c(Nc5ccc6c(c5)OCCO6)n3n2)CCC4)cc1: 961
20. Cc1cccc(-c2noc(-c3nn(CC(=O)NCC4CCCO4)c4ccccc34)n2)c1 (stereo not drawn): 1040
21. COc1ccc(CN2C=C(C(=O)OCc3noc(-c4ccccc4F)n3)C(C)=NS2(=O)=O)cc1: 1090
22. CC(C)NC(=O)c1nnc(-c2ccc(S(=O)(=O)N3CCCCC3)cc2)o1: 851
23. O=S(=O)(CCc1ccccc1)N1CCN(c2ccc3nnc(-c4ccco4)n3n2)CC1: 752
24. CCCc1ccc(S(=O)(=O)N2CCN(c3nc4ccncc4n(C)c3=O)CC2)cc1: 699
25. CCOc1ccccc1NS(=O)(=O)c1ccccc1-c1nc(-c2ccc(F)cc2)no1: 1150
26. CCOCCCNS(=O)(=O)c1cccc(-c2nc(-c3ccc(C)cc3)no2)c1: 1160
27. O=C(NC1CC1)c1ccc2c(c1)CCCN2S(=O)(=O)c1ccc(Cl)cc1: 896
28. Cc1ccccc1-c1nc(-c2ccc3c(c2)oc(=O)n3C)no1: 1110

* * *

Form field: RP-LC retention time (one value per entry).
- test-summary: gradient 5% acetonitrile 3 min, to 50% in 2 min, to 85% in 15 min, held 3 min, 100 µL/min
- run-conditions: column: Zorbax Extend-C18 2.1 x 50 mm; eluents: water / acetonitrile, 0.1% formic acid
attribute-measured: RP-LC retention time (s)

1) CCn1ccc2sc(C)c(C(=O)NCc3ccc(SC)cc3)c2c1=O: 866
2) O=C(c1ccc2c(c1)OCO2)N1CCC(c2nc(C3CC3)no2)C1 (stereo unspecified): 740
3) COc1c(OP2(=S)OCC(C)(C)CO2)cnn(C2CCCCC2)c1=O: 1190
4) COc1cc2nc(C(=O)N3CCCCC3)cc(Nc3ccc(C(C)C)cc3)c2cc1OC: 832
5) O=S(=O)(NC1CCCC1)c1ccc(-c2nnc(C3CC3)o2)o1: 812
6) CN(C)c1ncncc1N1CCC(C(=O)N2CCN(c3ccc(F)cc3)CC2)CC1: 641
7) COc1ccc(Cl)cc1NC(=O)C1Oc2ccccc2NC1=O (stereo unspecified): 873
8) CN1C(=O)c2cc(C(=O)N3CCCCCC3)nn2CC1(C)C(=O)NC1CCCC1 (stereo unspecified): 714
9) N#CC1=C(SCC(=O)Nc2nccs2)NC(=O)CC1c1ccccc1F (stereo unspecified): 696
10) O=C(Cc1ccccc1F)NCC(=O)Nc1nc2ccccc2[nH]1: 632
11) COc1cc(C(=O)N2CCC[C@@H]2C(=O)NCc2csc(-c3ccccc3)n2)cc(OC)c1OC: 769
12) COCCCNC(=O)CN1c2ccc(F)cc2-c2ccccc2S1(=O)=O: 756
13) O=C(NCCc1ccc(Cl)cc1)c1csc(C(=O)N2CCCC2)n1: 894
14) COc1ccc(N2C=C(C#N)S(=O)(=O)c3ccc(F)cc32)cc1OC: 893
15) Cc1ccc(CNC(=O)c2cn3cccc(C)c3n2)cc1: 686
16) COc1ccc(-c2ncc(C(=O)Nc3ccc(OC)cc3OC)c(-c3ccncc3)n2)cc1: 839

* * *

- test-summary: gradient 5% acetonitrile 3 min, to 50% in 2 min, to 85% in 15 min, held 3 min, 100 µL/min
- run-conditions: column: Zorbax Extend-C18 2.1 x 50 mm; eluents: water / acetonitrile, 0.1% formic acid
attribute-measured: RP-LC retention time

1. O=C(NCc1ccc2c(c1)OCO2)c1cn2c(n1)CCCC2: 581 s
2. Cn1cc(C2=CCN(C(=O)NCc3cccc(F)c3)CC2)c2cccnc21: 791 s
3. Cc1ccccc1CN1CCC2(CC1)CC(O)(c1ccccn1)CCO2 (configuration not stated): 570 s
4. Cc1cc(NC(=O)Cn2nc(N(C)C)c3ccccc3c2=O)ccc1Br: 995 s
5. CCCn1ccc2sc(C)c(C(=O)NC3CCN(Cc4ccccc4)CC3)c2c1=O: 625 s
6. CNC(=O)c1cc(-c2ccccc2Cl)n[nH]1: 668 s
7. COc1ccc2[nH]cc(CCN3CC(C(=O)Nc4ccc(Cl)cc4)CC3=O)c2c1 (configuration not stated): 829 s
8. Cc1ccnc(Nc2nc(C)c(C(=O)N3CCOCC3)s2)c1: 617 s
9. CCN1C(=O)c2cc(S(=O)(=O)Nc3cc(C)ccc3C)ccc2Oc2cccnc21: 1100 s
10. CCc1cccc(C)c1NC(=O)Cn1cnc2nc(N3CCC(C(=O)NC4CC4)CC3)sc2c1=O: 686 s
11. CCn1cc(C)c(C(=O)O)c1CC(=O)NCc1ccc(SC)cc1: 758 s
12. COc1ccc(OC)c(NC(=O)c2ccc(-n3cnc(NC(=O)C4CC4)c3)cc2)c1: 752 s
13. Cc1ccc(-c2nc(NC(=O)/C=C/c3ccc(Cl)cc3)sc2C)cc1: 1300 s
14. O=C(Nc1nnc(-c2ccco2)o1)c1ccc2c(c1)CCCC2: 775 s
15. O=C(Cc1cn2cc(Br)ccc2n1)Nc1ccc2c(c1)OCCO2: 608 s
16. Cc1ccc2ccc(C#N)cc2c1O: 892 s
17. O=C(Nc1nc(-c2ccccc2)cs1)c1ccc(COc2ccc(Cl)cc2Cl)o1: 1280 s
